Tested on: K4 kissing-loop RNA reporter;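 further: bound reporter read as fluorescence of individual clusters on recovered sequencing chips by microscopy, with normalized cluster intensities fitted with a binding model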
method.summary: apparent KD of K4 kissing-loop reporter; higher = weaker reporter binding
condition.description: Eterna round: R107; input ligand: arginine 13.2 mM
measured.metric: apparent KD of K4 kissing-loop reporter (nM)
// note: answer is a bare numeric in nM

Any idea what apparent KD of K4 kissing-loop reporter was measured for GGUAGCAUGGCGGCCGCCACUUAAUCACUCCAGGAUGAGGAAUAUAAGCAGUGAUGUUGCUAAGUAAGGACCGGGCCAUGCUACC ?
271

Try UGGACCAAGGAGUGAUGUUCCAAAUGUGAUACCAGCCACGAAAGUGGCCCUUGGCAGCACUGCCAAAGGACGAAAGUCCGGUCCU [#SwitchBubble 10 #StaticStem #K4Early] next.
352

Try GUACGCUUCCGAGUGAUGUUCGGAAAUCGCUAGGAUAUCGCUUUUGCGAGAAGGAGCGCAAUGAGGAAACUCGUUGUUAGUGUAC [FMN A 27] next.
146

Try CACCUAGGUACGGCCGCCACUAGAAGUGAUGUUUCGUCUGGUUCCGCAUUACGUGUACUUUCUUAUAGGACCGGGUAGCAAAUAG [theeternabot_exclusion_KL_Trp_B_3] next.
288

Try AGCUCAGAGUGACUCGAUAAGAGUCACAAACGAGGACCGGUACGGCCGCCACUCGAAAUAACGAGAGUGAUGUUCUUGCUGAGCA [FiskerMod 7 - Jieux - Same State Tryptophan A] next.
487

Try UCCUGCAAUGGACCACGAAAGUGGAUCGAUACCAGAGUCGAAAGACUCCCUUGGCAGCGAGUGAUGUUCGAAGCAGGUAAAUAAA [#SwitchBubble 21 #K4Late] next.
483

Try AGAACUGUCUGAGAUACCAGCUAAGGAGUGAUGUUCCUAGCUCCACGAAAGUGGAGCCAUAGCCCUUGGCAGCUCAGACAGUUCA [Omei KL Theo B SS A v6] next.
588

Try CGGCGUGCCUUAUCCUCAUCUCUGACUCAACGAGGACCGGUACGGCCGCCACUCGGAAGAGGCAGUGAUGUUGCCUACGCCGGUG [Oronat] next.
82.7

Try AGUUAUGUUGCGGCCGCCACUGCGCGAGUGAUGUUCGUGGCAUAUAUAAUGUUAUAUAUGCAUCACAGGACCGGGCGGCAUAGCG [Same State - Tryptophan B] next.
313

Try AGACUACCACACUGUCAAUAGACAGUGUACUAGGAUAUGCUGAUAAGCAGAAGGAGUGAUGUUCCGAGGUAGUCAAUAAAAUAAU [FmnAX 13 U28+G66] next.
258

Try UGGAGUUGACGAAAAGUCAACUCCUGAGAAGGAGCGGACGAAAGUCCAGGUAGGUCGCUCACUAGCAGUGAUGUUGCUACAUAAA [#OpenEnded 2] next.
211

Try UGUCAUUGGUCGGCCGCCACUAAAAUAAAAGAGUGAUGUUCUUAAAAGACGGACAAAGUCUGUCAUAGGACCGGGACCGAUGACU [TrypBS 23 #SwitchBubble #StaticStem] next.
425

Try UGCCGCAAGGCGAGCGCUCCCACUCCGGAAGGAGCGCCCGUAAGGGCAGGUAGGUCGCCGGAGUGAUGUUCCGGUGGAGGGCUCG [#2 Exclusion - Arginine A Attempt #24 (Inspired by Omei)] next.
283

Try AAACAUCACUGGGAGUGAUGUUCUCAGUGACGAGGACCGGUACGGCCGCCACUCGCGAGAGAUAUAGUUAAGUAAUGACUGCAUU [Excl Tryptophan A V7] next.
251

Try UUAGCAGUAUACUGCAAGACCUAUACUGAUACCAGAGCCUAUAGGCUCCCUUGGCAGCGGAUCGAGUGAUGUUCGUAAGGUCAUU [AK4.3 SS Theophylline A] next.
667

Try UGUGUUUACCUGACUCAGUGAUGUUGAGAAGGAGCGUGCGAAAGCACAGGUAGGUCGCUCAAUCCUUAAUCAGGUGAGCACUAAA [#SwitchBubble 13 #K4Early] next.
507

Try CACCUGCCAUAAGGAUAUUCGUCUUUGCGCUUCCAGUGAUGUUGGAGAUCGCAACACAUGGUCAUAGAAGAAGGUAUGGUAUUAA [theeternabot_sameState_KL_FMN_B_35] next.
186

Try AAACAUCACUGGGAGUGAUGUUCUCAGUGACGAGGACCGGUACGGCCGCCACUCGCGAGAGAUAUAGAUAAGUAAUGACAUCAUU [Excl Tryptophan A V4] next.
298

Try UAGUCCUAGUGAUGGUCAUCACGUGGUGGGCGAGGACCGGUACGGCCGCCACUCGACUUUGCAGUGAUGUUGCAAACCGGACAAU [Exclusion - Tryptophan A (Freestyle 19)] next.
322

Try CGCAGUGAUGUUGCGAGUAACUACAGGGAAGGAGCGUGCUAAAGCACAGGUAGGUCGCCCAUGCAGUGAUGUUGUGUAAAAGGGU [Excluson Arginine A GF 13] next.
98.6

Try AUUUUCAAUUUAUUAUAUAACUUUUCAGAAGGAGCGUGGAAGUUCACAGGUAGGUCGCUGAAUAUAGGACUAGUGAUGUUAGUUA [JR_Nu_SSArginiA_Sub023] next.
247

Try CAUAGACAAGUGAUGUUUGUCAUAACCGAAGGAGCGUCUUUAAAGACAGGUAGGUCGCGGAUUAAUUAAGUUAUGAUUCUUUUUA [JR_SSArginiA_Sub017] next.
572
